Origin of values: patent US20240247080A1

- MEASURED_ON: T1, human neuropeptide Y2 receptor (human, UniProt P49146 1-381)
- T1 sequence (looked up): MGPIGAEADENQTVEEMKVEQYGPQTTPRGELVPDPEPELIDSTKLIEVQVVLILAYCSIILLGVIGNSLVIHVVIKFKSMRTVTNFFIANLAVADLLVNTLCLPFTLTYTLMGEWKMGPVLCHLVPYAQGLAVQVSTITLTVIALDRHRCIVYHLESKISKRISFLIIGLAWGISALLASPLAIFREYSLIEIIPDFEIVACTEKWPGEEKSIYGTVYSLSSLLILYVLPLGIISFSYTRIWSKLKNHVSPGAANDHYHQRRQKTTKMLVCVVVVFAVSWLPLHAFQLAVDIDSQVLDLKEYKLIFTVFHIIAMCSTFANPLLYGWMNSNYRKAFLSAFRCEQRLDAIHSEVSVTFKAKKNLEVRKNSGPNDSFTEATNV
- EXPERIMENTAL_DETAILS: cell-based or functional assay
Non-standard residues stand in square brackets, D forms with d. No end group written: not given here. Aib = CC(C)(N)C(=O)O
So basically, if EC50 CreLuc hNPY2R 0.5% hP comes in under 10 nM it's satisfied, and if it's 10 nM or more it's not satisfied.

| BINDER | LABEL_VALUE |
| --- | --- |
| Y[Aib]EGTFTSDYSI[Aib]LEKQAQ[Aib]AFVQWLIKGGPEEGASLRHYYNWLTRQRY-NH2 (not fully specified (residue 28)) [Compound 108] | not satisfied |
| YXEGTFTSDYSIXLEKQAQXAFVEWLIKGGPSSGASIRHYYNWLTRQRY (Aib at 2, 13, 20; K28 side chain: C20DA-gGlu-gGlu-gGlu-gGlu-gGlu-gGlu-eLys; C-terminal NH2) [Compound 132] | not satisfied |
| YXEGTFTSDYSIXLEKQAQXAFVEWLIKGGPSSGASLRXYYNWLTRQRY (Aib at 2, 13, 20; Tle at 39; K28 side chain: C20DA-gGlu-gGlu-gGlu-gGlu-gGlu-gGlu-eLys; C-terminal NH2) [Compound 119] | not satisfied |
| YXEGTFTSDYSIXLEKQAQXAFVEWLIKGGQSSGASLRHYYNWLTRQRY (Aib at 2, 13, 20; K28 side chain: C20DA-gGlu-gGlu-gGlu-gGlu-gGlu-gGlu-eLys; C-terminal NH2) [Compound 123] | satisfied |
| YXEGTFTSDYSIXLESQAQXAFVEWLIKGGPSSGASLRHYYNWLTRQRY (Aib at 2, 13, 20; K28 side chain: C20DA-gGlu-gGlu-gGlu-gGlu-gGlu-gGlu-eLys; C-terminal NH2) [Compound 121] | not satisfied |
